Values compiled from paper PMC10573946.

- test: Thermodynamic aqueous solubility (shake-flask, HPLC)
- Type: physicochemical
- experimental-parameters: 37 °C, water, thermodynamic from solid, Solubility in water
reported-metric: solubility at 48 h (µg/mL)
Quick reminder: number only, in µg/mL, skip the unit.

Look up solubility at 48 h for this compound: CCCSc1nc2cc(NC(=O)OC)ccc2[nH]1
246

----------
- System: HaCaT (immortalized human keratinocytes)
- test: In vitro cytotoxic assay (CellTiter 96 AQueous One) in HaCaT
- Assay type: cell-based
- experimental-parameters: 48 h
reported-metric: CC50 (µM)
Quick reminder: number only, in µM, skip the unit.

Look up CC50 for this compound: CCCSc1nc2cc(NC(=O)OC)ccc2[nH]1 [RetroABZ]
588

----------
- test: In vitro cytotoxic assay (CellTiter 96 AQueous One) in Huh-7
- Assay type: cell-based, human
- experimental-parameters: human, Huh-7 cells, 48 h
reported-metric: CC50 at 48 h

Look up CC50 at 48 h for this compound: CCCSc1nc2cc(NC(=O)OC)ccc2[nH]1 [RetroABZ]
> 300 µM

----------
- test: In vitro cytotoxic assay (CellTiter 96 AQueous One) in HaCaT
- Assay type: cell-based, human
- experimental-parameters: human, HaCaT cells (immortalized keratinocytes)
reported-metric: CC50 at 48 h

Look up CC50 at 48 h for this compound: CCCSc1nc2cc(NC(=O)OC)ccc2[nH]1 [RetroABZ]
> 300 µM

----------
- test: Thermodynamic aqueous solubility (shake-flask, HPLC)
- Type: physicochemical
- experimental-parameters: 37 °C, thermodynamic from solid; water, 37 ± 2 °C, 48 h; read-out: Solubility in water
reported-metric: solubility at 48 h
Please provide the amount together with its unit, number first.

Look up solubility at 48 h for this compound: CCCSc1ccc2nc(NC(=O)OC)[nH]c2c1
10.6 µg/mL
